- study-system: T1, GFP-9S library array, motif 4 ND N98W;D124K (synthetic construct, N98W;D124K)
- T1 chain: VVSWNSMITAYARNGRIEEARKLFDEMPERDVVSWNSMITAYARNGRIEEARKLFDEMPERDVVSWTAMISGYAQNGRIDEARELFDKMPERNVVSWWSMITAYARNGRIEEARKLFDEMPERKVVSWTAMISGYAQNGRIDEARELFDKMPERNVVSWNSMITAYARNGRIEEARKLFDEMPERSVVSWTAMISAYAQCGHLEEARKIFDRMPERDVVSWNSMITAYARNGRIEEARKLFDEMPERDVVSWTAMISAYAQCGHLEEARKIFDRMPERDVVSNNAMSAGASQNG
- experimental-protocol: high-throughput RNA pulldown from lysate on Ni-NTA beads; HRP: 50 mM Tris pH 8, 150 mM NaCl, 1 mM beta-mercaptoethanol, 50 ug/ml BSA, 3 ug/ml yeast RNA, 0.5% heparin; ITC and FP: Tris pH 8, 200 mM KCl, 5% glycerol; MST: 50 mM Tris pH 8, 200 mM NaCl, 1 mM DTT, BSA, heparin, 0.05% Tween 20
- condition-description: tags: N-terminal His-eGFP; label: 5' Cy5
readout-type: Kd (nM)
Numbers only; they are read as nM.

GET /value?item= AUUAGACGUGA (ssRNA) [Cy5-rpoA-G] &field=Kd returns 48.1

GET /value?item= AUUACACGUGA (ssRNA) [Cy5-rpoA] &field=Kd returns 72.6
